# ASSAY_NOTES: Metabolic stability and intrinsic clearance in human liver microsomes
# Format: in vitro ADME
# ASSAY_SETUP: pooled human liver microsomes, NADPH, 1 uM compound, 37 C; read-out: hMics CLint
microsomal CLint at 1 µM values for the compounds below.
PROPERTY_LABEL: microsomal CLint at 1 µM (µL/min/mg)

TEST_SMILES	PROPERTY_LABEL	QUALIFIER_SIGN	NUMERIC_VALUE
Cc1nc(C(=O)N2CC(F)(F)C[C@@H](C)[C@H]2CNc2ccc(C(F)(F)F)cn2)c(-c2ccc(F)cc2)s1	microsomal CLint at 1 µM	=	29
C[C@@H]1CC(F)(F)CN(C(=O)c2nn(C)cc2-c2ccc(Cl)cc2)[C@@H]1CNc1cnc(C(F)(F)F)cn1	microsomal CLint at 1 µM	<	3

* * *

# TARGET: OX1 (Homo sapiens, UniProt O43613)
# Sequence (O43613 whole entry): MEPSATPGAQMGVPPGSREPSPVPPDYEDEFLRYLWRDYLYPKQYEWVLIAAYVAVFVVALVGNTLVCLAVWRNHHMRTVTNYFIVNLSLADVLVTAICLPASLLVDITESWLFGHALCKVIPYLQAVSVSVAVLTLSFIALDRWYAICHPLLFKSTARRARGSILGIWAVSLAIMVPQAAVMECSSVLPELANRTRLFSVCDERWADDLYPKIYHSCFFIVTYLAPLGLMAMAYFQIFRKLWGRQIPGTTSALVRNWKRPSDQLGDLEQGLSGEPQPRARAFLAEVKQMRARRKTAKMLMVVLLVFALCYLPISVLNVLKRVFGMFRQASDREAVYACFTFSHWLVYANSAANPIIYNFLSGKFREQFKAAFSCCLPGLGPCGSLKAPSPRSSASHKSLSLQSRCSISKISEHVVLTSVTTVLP
# ASSAY_NOTES: Orexin receptor cell-based functional assay, [Ca2+]i by FLIPR, CHO-OX1 cells
# ASSAY_SETUP: FLIPR calcium, antagonism of EC90 of [OX], read-out: OXI, IC50
IC50 values for the molecules below.

TEST_SMILES	IC50, nM
COc1cccc(-c2sc(C)nc2C(=O)N2CC(F)(F)C[C@@H](C)[C@H]2CNc2cnc(C(F)(F)F)cn2)n1	11
C[C@@H]1CC(F)(F)CN(C(=O)c2nn(C)cc2-c2ccc(F)cc2)[C@@H]1CNc1ccc(C(F)(F)F)cn1	2
C[C@@H]1CC(F)(F)CN(C(=O)c2nn(C)cc2-c2ccccn2)[C@@H]1CNc1ccc(C(F)(F)F)cn1	5
C[C@@H]1CC(F)(F)CN(C(=O)c2cc(Cl)ccc2-n2nccn2)[C@@H]1CNc1cnc(C(F)(F)F)cn1	12
Cc1ccc(-n2nccn2)c(C(=O)N2CC(F)(F)C[C@@H](C)[C@H]2CNc2ncc(Cl)cn2)c1	8
Cc1ccc(-c2nnn(C)n2)c(C(=O)N2CC(F)(F)C[C@@H](C)[C@H]2CNc2ncc(C(F)(F)F)cn2)c1	8
Cc1ccc(-c2sc(C)nc2C(=O)N2CC(F)(F)C[C@@H](C)[C@H]2CNc2ncc(C(F)(F)F)cn2)cc1	4
Cc1cccc(-c2cn(C)nc2C(=O)N2CC(F)(F)C[C@@H](C)[C@H]2CNc2cnc(C(F)(F)F)cn2)n1	7
C[C@@H]1CC(F)(F)CN(C(=O)c2nn(C)cc2-c2ccc(F)cc2)[C@@H]1COc1ccc(C(F)(F)F)cn1	52
C[C@@H]1CC(F)(F)CN(C(=O)c2nn(C)cc2-c2ncc(F)cn2)[C@@H]1CN(C)c1ncc(C(F)(F)F)cn1	57
C[C@@H]1CC(F)(F)CN(C(=O)c2nn(C)cc2-c2cc(Cl)ccn2)[C@@H]1CNc1ncc(C(F)(F)F)cn1	14
Cc1ccc(-c2cn(C)nc2C(=O)N2CC(F)(F)C[C@@H](C)[C@H]2CNc2cnc(C(F)(F)F)cn2)cc1	5
Cc1ccc(-c2sc(C)nc2C(=O)N2CC(F)(F)C[C@@H](C)[C@H]2CNc2ncc(C(F)(F)F)cn2)nc1	10
C[C@@H]1CC(F)(F)CN(C(=O)c2nn(C)cc2-c2ncccn2)[C@@H]1CNc1ccc(C(F)(F)F)cn1	4

* * *

# TARGET: UniProt:O43614
# Sequence (O43614 whole entry): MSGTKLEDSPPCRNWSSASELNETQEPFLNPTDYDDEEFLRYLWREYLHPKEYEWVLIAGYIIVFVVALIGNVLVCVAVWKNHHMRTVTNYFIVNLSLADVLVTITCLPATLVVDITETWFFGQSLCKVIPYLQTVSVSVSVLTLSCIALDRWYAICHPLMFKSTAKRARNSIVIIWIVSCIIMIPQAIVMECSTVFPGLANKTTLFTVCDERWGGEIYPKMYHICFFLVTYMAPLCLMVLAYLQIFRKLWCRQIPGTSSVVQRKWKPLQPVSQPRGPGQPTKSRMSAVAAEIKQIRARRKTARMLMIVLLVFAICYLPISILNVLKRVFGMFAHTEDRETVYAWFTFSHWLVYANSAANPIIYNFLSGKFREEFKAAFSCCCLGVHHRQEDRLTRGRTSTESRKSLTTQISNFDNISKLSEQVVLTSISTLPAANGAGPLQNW
# ASSAY_NOTES: Orexin receptor cell-based functional assay, [Ca2+]i by FLIPR, CHO-OX2 cells
# ASSAY_SETUP: FLIPR calcium, antagonism of EC90 of [OX]
PROPERTY_LABEL: IC50

COMPOUND	RESULT
Cc1nc(C(=O)N2CC(F)(F)C[C@@H](C)[C@H]2CNc2ncc(C(F)(F)F)cn2)c(-c2cccc(F)c2)s1 [Compound 67]	1.11 µM
C[C@@H]1CC(F)(F)CN(C(=O)c2cc(Cl)ccc2-n2nccn2)[C@@H]1CNc1cnc(C(F)(F)F)cn1 [Compound 154]	> 5 µM
COc1ccc(-c2cn(C)nc2C(=O)N2CC(F)(F)C[C@@H](C)[C@H]2CNc2ccc(C(F)(F)F)cn2)cc1 [Compound 177]	0.17 µM
Cc1ccc(-c2nnn(C)n2)c(C(=O)N2CC(F)(F)C[C@@H](C)[C@H]2CNc2ncc(Cl)cn2)c1 [Compound 9]	> 5 µM
Cc1cccc(-c2cn(C)nc2C(=O)N2CC(F)(F)C[C@@H](C)[C@H]2CNc2cnc(C(F)(F)F)cn2)c1 [Compound 123]	> 5 µM
Cc1ccnc(-c2cn(C)nc2C(=O)N2CC(F)(F)C[C@@H](C)[C@H]2CNc2cnc(C(F)(F)F)cn2)c1 [Compound 134]	> 5 µM
CCc1cnc(NC[C@@H]2[C@H](C)CC(F)(F)CN2C(=O)c2nn(C)cc2-c2ccccc2)nc1 [Compound 20]	> 5 µM

* * *

IC50 values for the molecules below.
# TARGET: OX1 (Homo sapiens, UniProt O43613)
# ASSAY_NOTES: Orexin receptor cell-based functional assay, [Ca2+]i by FLIPR, CHO-OX1 cells
# ASSAY_SETUP: FLIPR calcium, antagonism of EC90 of [OX], read-out: OXI, IC50
PROPERTY_LABEL: IC50 (µM)

TEST_SMILES	TARGET	QUALIFIER_SIGN	NUMERIC_VALUE
C[C@@H]1CC(F)(F)CN(C(=O)c2nn(C)cc2-c2cccnc2)[C@@H]1CNc1ncc(C(F)(F)F)cn1	OX1 (Homo sapiens, UniProt O43613)	=	0.206
C[C@@H]1CC(F)(F)CN(C(=O)c2nn(C)cc2-c2ccc(F)cn2)[C@@H]1CNc1ncc(C(F)(F)F)cn1	OX1 (Homo sapiens, UniProt O43613)	>	1
C[C@@H]1CC(F)(F)CN(C(=O)c2nn(C)cc2-c2cccc(F)c2)[C@@H]1CNc1ncc(C(F)(F)F)cn1	OX1 (Homo sapiens, UniProt O43613)	=	0.004
COc1ccc(-c2cn(C)nc2C(=O)N2CC(F)(F)C[C@@H](C)[C@H]2CNc2ncc(C(F)(F)F)cn2)nc1	OX1 (Homo sapiens, UniProt O43613)	=	0.047
Cc1cccc(-c2cn(C)nc2C(=O)N2CC(F)(F)C[C@@H](C)[C@H]2CNc2ncc(C(F)(F)F)cn2)c1	OX1 (Homo sapiens, UniProt O43613)	=	0.004
Cc1ccc(-n2nccn2)c(C(=O)N2CC(F)(F)C[C@@H](C)[C@H]2CNc2ncc(Cl)cn2)n1	OX1 (Homo sapiens, UniProt O43613)	=	0.015
Cc1ccc(-c2nnn(C)n2)c(C(=O)N2CC(F)(F)C[C@@H](C)[C@H]2CNc2ncc(C(F)(F)F)cn2)n1	OX1 (Homo sapiens, UniProt O43613)	=	0.029

* * *

# TARGET: OX1 (Homo sapiens, UniProt O43613)
# ASSAY_NOTES: Orexin receptor cell-based functional assay, [Ca2+]i by FLIPR, CHO-OX1 cells
# ASSAY_SETUP: FLIPR calcium, antagonism of EC90 of [OX], read-out: OXI, IC50
// boundary case: IC50 equal to 10 nM maps to No; strictly smaller maps to Yes

TEST_SMILES	ASSIGNED_CLASS
Cc1cccnc1-c1cn(C)nc1C(=O)N1CC(F)(F)C[C@@H](C)[C@H]1CNc1ncc(C(F)(F)F)cn1	No
C[C@@H]1CC(F)(F)CN(C(=O)c2cc(F)ccc2-c2nnn(C)n2)[C@@H]1CNc1ncc(C(F)(F)F)cn1	Yes
Cc1cc(C(=O)N2CC(F)(F)C[C@@H](C)[C@H]2CNc2ncc(C(F)(F)F)cn2)c(-c2ccccn2)s1	Yes
C[C@@H]1CC(F)(F)CN(C(=O)c2nn(C)cc2-c2ncc(C(F)(F)F)cn2)[C@@H]1CNc1ncc(C(F)(F)F)cn1	No
C[C@@H]1CC(F)(F)CN(C(=O)c2nn(C)nc2-c2ccccn2)[C@@H]1CNc1ncc(C(F)(F)F)cn1	No
Cc1nc(C(=O)N2CC(F)(F)C[C@@H](C)[C@H]2CNc2cnc(C(F)(F)F)cn2)c(-c2ccccc2)o1	No

* * *

IC50 values for the molecules below.
# TARGET: OX1 (Homo sapiens)
# ASSAY_NOTES: Orexin receptor cell-based functional assay, [Ca2+]i by FLIPR, CHO-OX1 cells
# ASSAY_SETUP: FLIPR calcium, antagonism of EC90 of [OX], read-out: OXI, IC50
PROPERTY_LABEL: IC50 (nM)

MOLECULE	QUALIFIER_SIGN	NUMERIC_VALUE
C[C@@H]1CC(F)(F)CN(C(=O)c2cnn(C)c2-c2ccccn2)[C@@H]1CNc1ncc(Cl)cn1 [Compound 96]	>	1000
Cc1ccc(-c2cn(C)nc2C(=O)N2CC(F)(F)C[C@@H](C)[C@H]2COc2ccc(C(F)(F)F)cn2)nc1 [Compound 206]	=	22
C[C@@H]1CC(F)(F)CN(C(=O)c2nn(C)cc2-c2ccc(Cl)cn2)[C@@H]1CNc1ncc(C(F)(F)F)cn1 [Compound 221]	=	2
Cc1ccc(-n2nccn2)c(C(=O)N2CC(F)(F)C[C@@H](C)[C@H]2COc2ccc(C(F)(F)F)cn2)n1 [Compound 204]	=	40
Cc1ccc(-c2cn(C)nc2C(=O)N2CC(F)(F)C[C@@H](C)[C@H]2CNc2ncc(C(F)(F)F)cn2)nc1 [Compound 44]	=	10
C[C@@H]1CC(F)(F)CN(C(=O)c2nn(C)cc2-c2ccncn2)[C@@H]1CNc1ncc(C(F)(F)F)cn1 [Compound 241]	>	1000
C[C@@H]1CC(F)(F)CN(C(=O)c2nn(C)cc2-c2cccc(C(F)(F)F)n2)[C@@H]1CNc1ncc(C(F)(F)F)cn1 [Compound 229]	=	7
